- System: K4 kissing-loop RNA reporter;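 note: bound reporter read as fluorescence of individual clusters on recovered sequencing chips by microscopy, with normalized cluster intensities fitted with a binding model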
- Test method notes: apparent KD of K4 kissing-loop reporter; higher = weaker reporter binding
- Stated conditions: Eterna round: R107; input ligand: theophylline 20 uM
Measured apparent KD of K4 kissing-loop reporter values are reported for all entries that follow.
Answer by giving the amount and then stating its unit.

Answered examples (5):
AGACUACCACACUGUCAAUAGACAGUGAGCUAGGAUAUGCUGAUAAGCAGAAGGAGUGAUGUUCCUUGGUAGUCAAUAAAAUAAU [FmnAX 13 G29+U67] ... 0.319 µM
AACAUUUUCAGAAGGAGCGUGAAUUAUUCAUAAUUAUAUUAUACGAGUGAUGUUCGUAUUUCACAGGUAGGUCGCUGAUAUAUUA [JR_SSArginiB_Sub001] ... 0.133 µM
GCCGUAGAUCGAAGGAGCGUGCAAGAAUCGUAGUGAUGUUACGGAGAGUGUCACGCCGUCGCACAGGUAGGUCGCGAUCUACGGC ... 0.0692 µM
UGAUACCAGACGGCCGCCACUCCCGUAAGUCAAAGACUUACGAAGAGGGUUUUUUAGUGAUGUUGGAGGACCGGGUCUGGUAUCU [FiskerMod 18 - Jieux - Exclusion - Tryptophan B] ... 0.653 µM
GUAAGACCGGGACUCCAGUGAUGUUGGAGGCAGGAUAUCCAGUCGAGGAGAAGGGCCAGGGAUAUCGAGCUGCUCGGUUCGUAGU [Rerareatra] ... 0.107 µM

[Q] Which apparent KD of K4 kissing-loop reporter value belongs to AUGUAUGAAUUAGGAUAUCGUGAGCCUUGCAUAUAUAUGAUAAAUGGAUAUGUCGUAGUGAUGUUACGAGAAGGAGUGUGGAGUA [KL-XFMN-B4] ?
[A] 0.0712 µM

----------
- Test system: MS2 coat protein
- Test method notes: apparent KD of MS2 coat protein; designed switch direction (-1 OFF switch, 1 ON switch): 1; higher = weaker reporter binding
- Stated conditions: input ligand: FMN 200 uM
Kind request: treat 0.07 µM as inclusive, so apparent KD of MS2 coat protein at 0.07 µM or higher is Fulfilled, anything lower is Not fulfilled.

Examples from the recorded data:
GAGCCAGUCCGAGGAUAUUCAUAUUAACACAUGAGGAUCACCCAUGUAGGCUCAGAAGAGCCCUGGGAGAAGGCGGACUGGCUC [SS-NG2-LRO15] (Eterna round: R96, puzzle: Same State NG 2) ... Fulfilled
CCGGUAUAUGGAGGAUAUGGAGCCUUAUUGGCUCCAGAAGGCUAAUAACAUGAGGAUCACCCAUGUCCGGCGGUCAAUAGACCG [Eli NG1ss - 59] (Eterna round: R96, puzzle: Same State NG 1) ... Not fulfilled
GGCCGGCCGAACGGAGGGCCACAUGAGGAUCACCCAUGUACAUAGGAUAUCAUGUCAACGAGGCAUGAGAAGGGUGAUUAAAGC [Orenriaran] (Eterna round: R96, puzzle: Same State NG 3) ... Not fulfilled

[Q] In plain terms: is recorded apparent KD of MS2 coat protein at least 0.07 µM for UAAAAGAAUUAAGGAUAUUGAAUACAUAUGUUUAACAUGAGGAUCACCCAUGUGGGUUGCGGUAUCGAGAAGGUAAAAUAAUAG [Mat - Same State NG 2 - JL mod - D6] (Eterna round: R96, puzzle: Same State NG 2) ?
[A] Fulfilled

[Q] Follow-up item: GCAUUAGGCAUAGGAUAUCCAACAUGAGGAUCACCCAUGUCGCAGCGUGAAAAGAACGCUGCAAAGGAGAAGGAUGCGGUUUAC [Onususa] (Eterna round: R96, puzzle: Same State NG 2)
[A] Not fulfilled
